- assay_name: in vitro
- measurement_conditions: human, CC50 (μM) AlamarBlue assay
Recorded CC50 values for a group of compounds are listed next.
quantity_name: CC50 (µM)

>>> numeric_readout("COc1ccc(C(O)C(C)Oc2ccc(C3OC(c4ccc(OC(C)C(O)c5ccc(OC)c(OC)c5)c(OC)c4)C(C)C3C)cc2OC)cc1OC (centres unmarked) [Manassantin A]")
24.3
>>> numeric_readout("CC(C)[C@@H]1NC(=O)[C@H](C)OC(=O)[C@@H](C(C)C)NC(=O)[C@@H](C(C)C)OC(=O)[C@H](C(C)C)NC(=O)[C@H](C)OC(=O)[C@@H](C(C)C)NC(=O)[C@@H](C(C)C)OC(=O)[C@H](C(C)C)NC(=O)[C@H](C)OC(=O)[C@@H](C(C)C)NC(=O)[C@@H](C(C)C)OC1=O [Valinomycin]")
1.93
>>> numeric_readout("O=C1c2ccccc2-n2c1nc1ccccc1c2=O [Tryptanthrin]")
12.2
>>> numeric_readout("S=C(NCc1ccc2c(c1)OCO2)N1CCN(c2ncnc3c2oc2ccccc23)CC1 [Amuvatinib]")
28
>>> numeric_readout("CC[C@@H](C(=O)O)[C@@H]1O[C@@H]([C@@H](C)[C@H](O)[C@H](C)C(=O)[C@H](CC)[C@H]2O[C@]3(C=C[C@@H](O)[C@]4(CC[C@@](C)([C@H]5CC[C@](O)(CC)[C@H](C)O5)O4)O3)[C@H](C)C[C@@H]2C)[C@@H](C)C[C@@H]1C [Narasin]")
4.44
